The measured values listed here are drawn from the supplement of paper PMC4862054.

# Tested on: MDA-MB-453
# assay: normalised response (% of control), CellTiter-Glo; higher = more viable cells (100 = DMSO, 0 = benzethonium chloride kill control)
# condition label: incubation time: 72 h
# Lookup of reported normalised response keyed by entry
Respond with the bare value in %.

## Input Look up normalised response for this molecule: OC[C@H]1O[C@@H](n2cnc3c2N=CNC[C@H]3O)C[C@@H]1O [Pentostatin] (10000 nM)
## Output 110

## Input Look up normalised response for this molecule: C[C@]1(c2nc3c(C(N)=O)cccc3[nH]2)CCCN1 [Veliparib] (10000 nM)
## Output 121

## Input Look up normalised response for this molecule: CS(=O)(=O)c1ccc(C(=O)Nc2ccc(Cl)c(-c3ccccn3)c2)c(Cl)c1 [Vismodegib] (10000 nM)
## Output 87.9

## Input Look up normalised response for this molecule: CN1CCC(COc2cnc(-c3cccc(Cn4nc(-c5cccc(C#N)c5)ccc4=O)c3)nc2)CC1 (1000 nM)
## Output 84
